Data credit: ChEMBL document CHEMBL1201862

- Tested on: OVCAR-3
- methodNotes: NCI tumour cell line growth inhibition, 48 h
Activity calls are given as the source filed them. Rule as the data show it: active = GI50 up to about 1.1 µM and inactive = higher.
Allowed answers: label 1 = active, label 0 = inactive

compound=O=c1[nH]c2ccc(CC(=S)N3CCOCC3)cc2o1 measurementtarget=OVCAR-3 assignedcategory="label 0"

IN: Kindly provide the recorded test outcome for the following compound: Clc1ccc(C2=NOC(C3CCCCC3)C2)cc1 (stereo unspecified)
OUT: label 0

IN: Then CCCCCC(C)C[C@H]1CO[C@H](c2ccc[nH]2)N[C@H]1C(=O)OC (stereo partly specified) ?
OUT: label 0

IN: Then "Oc1c(CN2CCN(c3ccccc3)CC2)cc(Br)c2cccnc12" ?
OUT: label 1

---

- Test system: UO-31
- methodNotes: NCI tumour cell line growth inhibition, 48 h
Active and inactive are the calls of the source. Cut-off read from the data, not from the text of the source: active = GI50 up to about 1.1 µM and inactive = higher.
Allowed answers: active, inactive

Some solved entries appear below for comparison.
molecule="O=S1(=O)c2ccccc2NC(c2ccc3ccccc3c2)CC1c1ccccc1F (centres undefined)" assignedcategory=inactive
molecule=COC(=O)/C=C1/N=C(N(C)/N=C/c2ccccc2)NC1=O assignedcategory=inactive
molecule=CC(=O)N1CC(C)(C)c2c1cc(C)c(O)c2C assignedcategory=inactive
molecule="O=C1[C@H]2ON(c3ccccc3)C(c3ccccc3F)[C@H]2C(=O)N1c1ccc(Cc2ccc(N3C(=O)[C@@H]4ON(c5ccccc5)C(c5ccccc5F)[C@@H]4C3=O)cc2)cc1 (some centres undefined)" assignedcategory=inactive

IN: Kindly provide the recorded test outcome for the following molecule: CCn1c(-c2ccc(OC(C)=O)cc2)c(C)c2cc(OC(C)=O)ccc21 [ZINDOXIFENE]
OUT: inactive

IN: Then NC(CCc1nc(-c2cccc([N+](=O)[O-])c2)cs1)C(=O)O (centres undefined) ?
OUT: inactive

IN: Then "CN(C)CCc1c2c(nc3ccccc13)C(=O)c1cccnc1C2=O" ?
OUT: active

IN: Then COc1ccc(NC(=O)CC(=O)N2N=C(N(CCC#N)c3cccc(C)c3)CC2c2ccccc2)cc1 (centres undefined) ?
OUT: inactive

IN: Then COc1ccc(C(=O)C(CC2C(=O)CC(C)(C)C(C(=O)C(=O)Nc3c(C)cccc3C)C2=O)c2ccc(OC)cc2)cc1 (centres undefined) ?
OUT: inactive

---

- Test system: Malme-3M
- methodNotes: NCI tumour cell line growth inhibition, 48 h
Calls of active or inactive are those of the source. Cut-off read from the data, not from the text of the source: active = GI50 up to about 1.1 µM and inactive = higher.
experimentalReadout: GI50

Record excerpt, results attached:
compound="O=C(O[C@H]1[C@@H]2C=CO[C@@H](OC3OC(CO)C(O)C(O)C3O)[C@@H]2[C@@]2(CO)O[C@@H]12)c1ccc(O)c(O)c1 (stereo partly specified)" observedmeasurement="> 100 µM (inactive)"
compound="COc1ccccc1CC1(O)OC(=O)c2ccccc21 (stereo unspecified)" observedmeasurement="> 100 µM (inactive)"
compound="COc1ccc2c(c1)CCc1cnn(C3OC(COC(C)=O)C(OC(C)=O)C(OC(C)=O)C3OC(C)=O)c1-2 (stereo unspecified)" observedmeasurement="> 10 µM (inactive)"
compound=c1ccc(CN2CCC(=NN3CCCCC3)CC2)cc1 observedmeasurement="> 100 µM (inactive)"
compound=O=c1c2c3c(sc2nc2n1N=CN(c1ccc(F)cc1)C2)CCCC3 observedmeasurement="> 100 µM (inactive)"
compound=C/C(C[n+]1ccccc1)=N\N=C(N)N observedmeasurement="> 100 µM (inactive)"
compound=COc1cc(NS(C)(=O)=O)ccc1NCc1c2ccccc2nc2ccccc12 observedmeasurement="31.5 µM (inactive)"
compound=Cc1oc2c(cc(O)c3ccccc32)c2cccc1-2 observedmeasurement="> 100 µM (inactive)"

IN: I am curious: what GI50 value has been reported for "O=C1CCc2nc3ncccc3cc2C1" ?
OUT: > 100 µM (inactive)

IN: Then "Brc1c2c(c(Br)c3nsnc13)N=S=N2" ?
OUT: 31.3 µM (inactive)

IN: Then "O=C(Nc1nccs1)c1c(O)nc2sccn2c1=O" ?
OUT: > 10 µM (inactive)

IN: Then CNC(=O)OCC1=C(COC(=O)NC)C(C)N(c2ccc(OC)cc2)C1 (stereo unspecified) ?
OUT: > 100 µM (inactive)

IN: Then "C=C(c1ccccc1)[C@@]1(O)CC[C@@H]1N(CC#N)Cc1ccccc1" ?
OUT: 3.23 µM (inactive)

IN: Then C=CCCCCNC(=O)C[C@@H]1C2=C(CC[C@H]1O[Si](C)(C)C(C)(C)C)N1C(=O)CCC/C=C\C1C2 (stereo partly specified) ?
OUT: 14.7 µM (inactive)

---

In this section, each of the compounds is paired with its reported GI50.
- Test system: MDA-MB-435
- methodNotes: NCI tumour cell line growth inhibition, 48 h
Activity calls are given as the source filed them. Rule as the data show it: active = GI50 up to about 1.1 µM and inactive = higher.

Record excerpt, results attached:
compound="NC(=O)c1ncn2c(=O)n(CCCl)nnc12 [MITOZOLOMIDE]" measurementtarget=MDA-MB-435 observedmeasurement="170 µM (inactive)"
compound=CC(=O)CCNc1ccc(-c2cc(-c3ccc(N(C)C)cc3)nc3ccc4ccccc4c23)cc1 measurementtarget=MDA-MB-435 observedmeasurement="> 60.7 µM (inactive)"

IN: I am curious: what GI50 value has been reported for "CC(=O)c1c2n(n(-c3ccccc3)c1=O)C(=O)c1nccnc1-2" ?
OUT: > 100 µM (inactive)

IN: Then OCC(S)CS.[Bi] (stereo not given) ?
OUT: 15.2 µM (inactive)

IN: Then C=C1C(=O)O[C@@H]2/C=C(/C)[C@@H](OC(C)=O)C/C=C(\C)C(O)[C@@H](OC(=O)/C(C)=C\C)C12 (stereo not given in full) ?
OUT: 20.4 µM (inactive)

---

- Tested on: SW-620
- methodNotes: NCI tumour cell line growth inhibition, 48 h
Activity calls are given as the source filed them. No stated cut-off is given here; in the data, active = GI50 up to about 1.1 µM and inactive = higher.
experimentalReadout: GI50

IN: I am curious: what GI50 value has been reported for CN1CC(=O)N2Cc3ccccc3-n3cccc3C2C1 (centres undefined) ?
OUT: > 100 µM (inactive)

IN: Then "O=C(Nc1nccs1)c1c(O)nc2sccn2c1=O" ?
OUT: > 10 µM (inactive)

---

- Tested on: MOLT-4
- methodNotes: NCI tumour cell line growth inhibition, 48 h
Activity calls are given as the source filed them. Cut-off read from the data, not from the text of the source: active = GI50 up to about 1.1 µM and inactive = higher.
In this section, each of the compounds is paired with its reported GI50.

Record excerpt, results attached:
compound="CC(=O)OCC1OC(N2C(c3ccccc3)=CC(c3ccco3)C(C#N)=C2S)C(OC(C)=O)C(OC(C)=O)C1OC(C)=O (stereo not given)" observedmeasurement="> 22.2 µM (inactive)"
compound=COc1ccc(C(=O)/C=C/c2ccc(OCC(=N)N)cc2)cc1 observedmeasurement="3.58 µM (inactive)"
compound=C/C(C[n+]1ccccc1)=N\N=C(N)N observedmeasurement="> 100 µM (inactive)"
compound=CN(C)CCc1c2c(nc3ccccc13)C(=O)c1cccnc1C2=O observedmeasurement="2.57 µM (inactive)"
compound=Oc1c(Cl)cc(CN(Cc2cc(Cl)c(O)c(Cl)c2)C2CCCCC2)cc1Cl observedmeasurement="> 100 µM (inactive)"
compound=COc1ccc(/C=C2\N=C(N3CCOCC3)NC2=O)cc1 observedmeasurement="> 100 µM (inactive)"
compound="CN1C(=O)N(C)C2(CCN(CC(CC3OCCO3)c3ccc(F)cc3)CC2)C1=O (stereo not given)" observedmeasurement="> 100 µM (inactive)"
compound=COC(=O)[C@@H]1CN(C(=O)c2ccccc2)C(=O)N1C(=O)OCc1ccccc1 observedmeasurement="> 100 µM (inactive)"
compound="C#CCNC(=O)NC(CCCNC(=O)OCc1ccccc1)C(=O)OCc1ccccc1 (stereo not given)" observedmeasurement="> 100 µM (inactive)"

Kindly consider the entry below.
IN: I am curious: what GI50 value has been reported for "Cc1ccc(C2=C(c3ccccc3)C(O)(c3ccc(C)cc3)C(c3ccccc3)=C2c2ccc(C)cc2)cc1" ?
OUT: > 100 µM (inactive)

---

- System: COLO 205
- methodNotes: NCI tumour cell line growth inhibition, 48 h
Active and inactive are the calls of the source. No stated cut-off is given here; in the data, active = GI50 up to about 1.1 µM and inactive = higher.
Allowed answers: y for active, n for inactive

Some solved entries appear below for comparison.
molecule=Clc1ccccc1CN1COc2c(cc(Cl)c3cccnc23)C1 assignedcategory=n
molecule="CC(C)=CCC/C(C)=C/CC/C(C)=C/C(O)c1ccccc1 (stereo not given)" assignedcategory=n
molecule=O=C1N=C2SC(=S)N=C(S)N2NC12c1ccccc1-c1ccccc12 assignedcategory=n
molecule=CC(C)=C[C@H]1C[C@H](C)[C@H]2CC[C@H](C)c3c2c1c(C)c1ncoc31 assignedcategory=n

IN: Kindly provide the recorded test outcome for the following molecule: "CCOC(=S)SC/C(=N\OC(C)(C)OC)c1ccccc1"
OUT: n

IN: Then "Cc1ccc(C(=O)Nc2ccc(CP(=O)(O)O)cc2CP(=O)(O)O)cc1NC(=O)c1cccc(NC(=O)Nc2cccc(C(=O)Nc3cc(C(=O)Nc4ccc(CP(=O)(O)O)cc4CP(=O)(O)O)ccc3C)c2)c1" ?
OUT: n

IN: Then "CSC(SC)=C1C(=O)N(c2ccccc2)N=C1C" ?
OUT: n

---

- Tested on: HOP-92
- methodNotes: NCI tumour cell line growth inhibition, 48 h
Activity calls are given as the source filed them. Rule as the data show it: active = GI50 up to about 1.1 µM and inactive = higher.
In this section, each of the compounds is paired with its reported GI50.

Record excerpt, results attached:
compound=COc1cc(Br)c(C2OCCCO2)cc1OCc1ccccc1 measurementtarget=HOP-92 observedmeasurement="9.86 µM (inactive)"
compound=O=c1c2ccccc2[nH]c2ccc3c(Cl)n[nH]c3c12 measurementtarget=HOP-92 observedmeasurement="38.5 µM (inactive)"
compound=C=C(C)[C@H]1C2=CC(C)=C(O2)[C@@H](O[C@@H]2c3oc(cc3C)[C@H](C(=C)C)[C@H]3C=C(CC[C@H]2C(=C)C)C(=O)O3)[C@H](C(=C)C)CCC2=C[C@H]1OC2=O measurementtarget=HOP-92 observedmeasurement="> 100 µM (inactive)"
compound="CC(C)(C)C(=O)N1C(C(=O)O)Cc2ccccc2[C@@H]1Cc1ccccc1 (stereo not given in full)" measurementtarget=HOP-92 observedmeasurement="> 100 µM (inactive)"

IN: I am curious: what GI50 value has been reported for "C[Si](C)(N[Si](C)(C)OCCc1ccccc1)OCCc1ccccc1" ?
OUT: > 100 µM (inactive)

IN: Then "O=C1N=C2SC(=S)N=C(S)N2NC12c1ccccc1-c1ccccc12" ?
OUT: > 10 µM (inactive)
